CONDITION NOTES: 343.15 K; 101.33 kPa; Liquid; Concentric cylinders viscometry
RECORDED METRIC: viscosity (mPa·s)
Form entry: value (mPa·s) — number only.

Answered cases to consult:
MOLECULE | viscosity [mPa·s]
CCCCCCCC[n+]1ccccc1.O=S(=O)([N-]S(=O)(=O)C(F)(F)F)C(F)(F)F [1-octylpyridinium bis((trifluoromethyl)sulfonyl)amide] | 19.73
CCCCCCCCCCCC[n+]1ccccc1.O=S(=O)([N-]S(=O)(=O)C(F)(F)F)C(F)(F)F [1-dodecylpyridinium bis(trifluoromethylsulfonyl)imide] | 28.47
CCCC[n+]1ccccc1.O=S(=O)([N-]S(=O)(=O)C(F)(F)F)C(F)(F)F [1-butylpyridinium bis[(trifluoromethyl)sulfonyl]imide] | 13.39

Now consider the entry below.
Query: So what does the record say about viscosity for CCCCCCCCCC[n+]1ccccc1.O=S(=O)([N-]S(=O)(=O)C(F)(F)F)C(F)(F)F [1-decylpyridinium bis(trifluoromethylsulfonyl)imide] ?
Result: 23.81
